Data origin: ChEMBL document CHEMBL5058577

- Tested on: U2OS
- Assay Protocol: Multiplex assay against U2OS
- Format: toxicity, cell-based
- Protocol Conditions: human, 24 h, 1 µM, compound concentration 1 uM, replicate 2
The molecules listed here are annotated with their Population Healthy Nuclei (%).

- Molecule: "CN1C[C@H](C(=O)N[C@]2(C)O[C@@]3(O)[C@@H]4CCCN4C(=O)[C@H](Cc4ccccc4)N3C2=O)C[C@@H]2c3cccc4[nH]cc(c34)C[C@H]21.CS(=O)(=O)O [DIHYDROERGOTAMINE MESYLATE]"
  Population Healthy Nuclei (%): 65
- Molecule: "CCCCC[C@H](O)/C=C/[C@H]1[C@H](O)CC(=O)[C@@H]1CCCCCCC(=O)O"
  Population Healthy Nuclei (%): 75
- Molecule: "C[C@@H]1CC(=O)Nc2cccc(-c3ccc4c(c3)c(-c3cnn(C)c3)nn4C)c2N1"
  Population Healthy Nuclei (%): 74
- Molecule: "COc1ccc2c(c1OCc1ccccc1)C[C@@H](C(=O)O)N(C(=O)C(c1ccccc1)c1ccccc1)C2"
  Population Healthy Nuclei (%): 74
- Molecule: "C[C@H](NC(=O)CNC(=O)c1cccc(Cl)c1)c1ccccc1"
  Population Healthy Nuclei (%): 69
- Molecule: "CC(C)C[C@H](CO)Nc1nc(S[C@@H](C)c2ccccc2)nc2nc(N)sc12"
  Population Healthy Nuclei (%): 77
